Cited source for all entries: ChEMBL document CHEMBL1201862

This section presents compounds with their documented GI50 values.
# Tested on: SF-539
# method.summary: NCI tumour cell line growth inhibition, 48 h
The source made the active and inactive calls. No stated cut-off is given here; in the data, active = GI50 up to about 1.1 µM and inactive = higher.

# count of solved cases: 4
| compound | endpoint.result |
| --- | --- |
| O=C(O)CSCCc1ccccc1 | > 100 µM (inactive) |
| O=C(O)C(NCc1ccccc1)C(NCc1ccccc1)C(=O)O (stereo unspecified) | > 100 µM (inactive) |
| O=c1c2ccccc2nc(-c2cccc(Cl)c2)n1NCC1(O)OCC(O)C(O)C1O (stereo unspecified) | > 100 µM (inactive) |
| Cc1c(N2C(=O)C(Cl)C2/C=C/c2ccccc2)c(=O)n(-c2ccccc2)n1C (stereo unspecified) | 22.4 µM (inactive) |

Looking for the measured GI50 of C/C(=N\NC(=O)c1ccc(Cl)cc1)c1nc2cccnc2[nH]1 , can you help? 18.2 µM (inactive)

Please answer likewise for CCCC1(N2C(=O)c3ccc4c5c(ccc(c35)C2=O)N(C2(CCC)CCCCC2)C4=O)CCCCC1 > 100 µM (inactive)

---

# Test system: SNB-78
# method.summary: NCI tumour cell line growth inhibition, 48 h
The source made the active and inactive calls. No stated cut-off is given here; in the data, active = GI50 up to about 1.1 µM and inactive = higher.
observation.type: GI50

# count of solved cases: 2
| compound | observation.type | endpoint.result |
| --- | --- | --- |
| CC(=O)/C(=N\O)C(=O)Nc1ccc(Cl)cc1Cl | GI50 | > 100 µM (inactive) |
| O=[N+]([O-])c1ccc(/C=N/C23CC4CC(CC(C4)C2)C3)cc1 | GI50 | > 100 µM (inactive) |

Then this compound:
Looking for the measured GI50 of Nc1ccc(S(=O)(=O)Nc2cnc3ccccc3n2)cc1 [SULFAQUINOXALINE] , can you help? > 100 µM (inactive)

---

This section presents compounds with their documented GI50 values.
# Tested on: U-251
# method.summary: NCI tumour cell line growth inhibition, 48 h
The source made the active and inactive calls. No stated cut-off is given here; in the data, active = GI50 up to about 1.1 µM and inactive = higher.

# count of solved cases: 4
| smiles.input | test.target | GI50 |
| --- | --- | --- |
| COc1ccc(NC(=O)C(=O)NNC(=O)c2sc(NNC(C)=O)nc2C)c([N+](=O)[O-])c1 | U-251 | > 100 µM (inactive) |
| O=c1oc2ccccc2c(Nc2ccc3c(c2)Sc2ccccc2O3)c1[N+](=O)[O-] | U-251 | 18.5 µM (inactive) |
| Cc1c(/C=C2\CC/C(=C\c3[nH]c(C(=O)OC(C)(C)C)c(C)c3C)C2=O)[nH]c(C(=O)OC(C)(C)C)c1C | U-251 | > 100 µM (inactive) |
| Cn1c(=O)c2nc(SCCN3CCOCC3)[nH]c2n(C)c1=S | U-251 | > 100 µM (inactive) |

Looking for the measured GI50 of Cc1ccc(C(=O)N/N=C(\N=N\c2ccccc2Cl)c2ccc(N(C)C)cc2)cc1 , can you help? 62.1 µM (inactive)

---

# System: CAKI-1
# method.summary: NCI tumour cell line growth inhibition, 48 h
Active and inactive are the calls of the source. Cut-off read from the data, not from the text of the source: active = GI50 up to about 1.1 µM and inactive = higher.
observation.type: GI50

# count of solved cases: 8
| compound | test.target | GI50 |
| --- | --- | --- |
| O=C1/C(=C/c2ccccc2[N+](=O)[O-])N=C(c2ccccc2)N1C1Nc2cc3c(cc2S1)NC(N1C(=O)/C(=C/c2ccccc2[N+](=O)[O-])N=C1c1ccccc1)S3 (centres undefined) | CAKI-1 | 39.7 µM (inactive) |
| NC1=C(O)c2cccc3cccc(c23)C1=O | CAKI-1 | > 100 µM (inactive) |
| CC1=NN(c2ccc(S(=O)(=O)O)cc2)C2(C1)C(Cl)C(=O)N2c1nc2ccccc2s1 (centres undefined) | CAKI-1 | > 100 µM (inactive) |
| CCOC(=O)N1CCNCCN(C(=O)OCC)CCNCC1 | CAKI-1 | > 100 µM (inactive) |
| CC[C@H]1OC([C@H](O)C/C=C\C#C[Si](C)(C)C)C/C=C\C[C@H]1O[Si](C)(C)C(C)(C)C (some centres undefined) | CAKI-1 | > 100 µM (inactive) |
| CCOC(=O)Cc1cc(OC)c(OC)cc1/C(Cl)=C(\CO)c1ccc(OC)c(OC)c1 | CAKI-1 | > 100 µM (inactive) |
| N#CCN1C(=O)c2cc([N+](=O)[O-])cc3cc([N+](=O)[O-])cc(c23)C1=O | CAKI-1 | 23.9 µM (inactive) |
| CCN1CCCC(C#N)(c2ccccc2)CC1 (centres undefined) | CAKI-1 | > 100 µM (inactive) |

Then this compound:
Looking for the measured GI50 of Cc1c2ccnc(O)c2cc2c(=O)c3cnccc3[nH]c12 , can you help? > 100 µM (inactive)
